Experiment Description: physchem
Condition Details: pKa of the substrate amino group, determined by titration
Measure Name: pKa

{"Molecule": "NC(=O)CC[C@H](N)C(=O)Nc1ccc2ccccc2c1 [H-Gln-βNA]", "Measure Name": "pKa", "Recorded Number": 7.16}

----------
System Under Test: human QC (Homo sapiens)
Construct: The cDNA of the mature QC starting with codon 38 was fused in frame with the plasmid encoded 6× histidine tag; 6xHis; made in house; host or cells: Pichia pastoris X33 (pPICZαB, secreted); also E. coli M15 (pQE-31)
Sequence (Q16769 29-361): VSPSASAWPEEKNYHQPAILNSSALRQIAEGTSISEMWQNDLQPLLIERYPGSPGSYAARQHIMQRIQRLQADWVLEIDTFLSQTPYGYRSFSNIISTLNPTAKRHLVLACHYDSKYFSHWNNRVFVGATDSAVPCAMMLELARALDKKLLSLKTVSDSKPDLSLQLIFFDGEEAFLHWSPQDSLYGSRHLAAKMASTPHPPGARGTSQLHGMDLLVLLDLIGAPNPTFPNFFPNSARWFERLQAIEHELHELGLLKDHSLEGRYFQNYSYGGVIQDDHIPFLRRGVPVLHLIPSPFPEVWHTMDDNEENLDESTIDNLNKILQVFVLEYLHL
Experiment Description: Continuous spectrophotometric QC assay (glutamate dehydrogenase coupled), substrate kinetics;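 further: initial rates read on a microplate reader at 30 °C, with enzyme activity quantified against an ammonia calibration curve under the same assay conditions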
Format: biochemical
Condition Details: Human QC
Peptide text beside a SMILES is read from it.
Known kcat of a selection of compounds

{"Compound": "NC(=O)CC[C@H](N)C(=O)N[C@@H](CCC(=O)O)C(=O)N1CCC[C@H]1C(N)=O [[Gln^1]-FPP] (H-Gln-Glu-Pro-NH2)", "Display Unit": "s⁻¹", "kcat": 69.6}
{"Compound": "Cc1cc(=O)oc2cc(NC(=O)[C@@H](N)CCC(N)=O)ccc12 [H-Gln-AMC]", "Display Unit": "s⁻¹", "kcat": 5.3}
{"Compound": "NC(=O)CC[C@H](N)C(=O)N[C@@H](Cc1c[nH]cn1)C(=O)N1CCC[C@H]1C(N)=O [[Gln^1]-TRH] (H-Gln-His-Pro-NH2)", "Display Unit": "s⁻¹", "kcat": 82.8}
{"Compound": "CC(C)[C@H](NC(=O)[C@@H](N)CCC(N)=O)C(=O)O [H-Gln-Val-OH] (H-Gln-Val-OH)", "Display Unit": "s⁻¹", "kcat": 17.2}
